Reference for the values: ChEMBL document CHEMBL1201861

- Tested on: KYSE-510;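 note: cell viability readout used to measure how strongly growth of the cell line is suppressed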
- assay: cells
- Assay type: functional, cell-based
- condition-set: Homo sapiens
- Description: SANGER: Inhibition of human KYSE-510 cell growth in a cell viability assay.
test-readout: IC50

• C[C@]1(c2nc3c(C(N)=O)cccc3[nH]2)CCCN1 [VELIPARIB] = > 5000 nM
• CCCS(=O)(=O)Nc1ccc(F)c(C(=O)c2c[nH]c3ncc(Cl)cc23)c1F [PLX-4720] = > 10000 nM
• COc1cc(Nc2c(C#N)cnc3cc(OCCCN4CCN(C)CC4)c(OC)cc23)c(Cl)cc1Cl [BOSUTINIB] = > 2000 nM
• O=c1[nH]c2ccccc2n1C1CCN(Cc2ccc(-c3nc4cc5[nH]cnc5cc4nc3-c3ccccc3)cc2)CC1 = 2210 nM
• CC[C@]1(O)C[C@@H]2CN(CCc3c([nH]c4ccccc34)[C@@](C(=O)OC)(c3cc4c(cc3OC)N(C)[C@H]3[C@@](O)(C(=O)OC)[C@H](OC(C)=O)[C@]5(CC)C=CCN6CC[C@]43[C@@H]65)C2)C1 [VINBLASTINE] = 5.87 nM
• C/C(O)=C(\C#N)C(=O)Nc1cc(Br)ccc1Br = > 16000 nM
• O=c1cc(N2CCOCC2)oc2c(-c3cccc4c3sc3ccccc34)cccc12 = > 2000 nM
• Cn1cc(/C=C2\C(=O)Nc3cccnc32)c2ccccc21 = > 2000 nM

* * *

- System: NCI-H1304;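 note: growth inhibition of the cancer cell line, measured in a cell viability assay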
- assay: cells
- Assay type: functional, cell-based
- condition-set: Homo sapiens
- Description: SANGER: Inhibition of human NCI-H1304 cell growth in a cell viability assay.
test-readout: IC50

* CCCS(=O)(=O)Nc1ccc(F)c(C(=O)c2c[nH]c3ncc(Cl)cc23)c1F | > 10 µM
* C[C@]12O[C@H](C[C@]1(O)CO)n1c3ccccc3c3c4c(c5c6ccccc6n2c5c31)CNC4=O | > 2 µM
* CCNc1cc(N[C@H]2CC[C@@H](O)CC2)nc(Nc2ccc3c(ccn3Cc3ccccc3)c2)n1 | > 5.12 µM
* Cc1nc(Nc2ncc(C(=O)Nc3c(C)cccc3Cl)s2)cc(N2CCN(CCO)CC2)n1 | > 1.28 µM
* CC(C)=CC[C@@H](O)C1=CC(=O)c2c(O)ccc(O)c2C1=O | > 16 µM
* C/C(O)=C(\C#N)C(=O)Nc1cc(Br)ccc1Br | > 16 µM
* CC(=O)c1c(C)c2cnc(Nc3ccc(N4CCNCC4)cn3)nc2n(C2CCCC2)c1=O | > 4 µM

* * *

- Test system: SCC-9;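 note: Read-out is a cell viability assay, with values giving inhibition of cell growth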
- assay: cells
- Format: functional, cell-based
- condition-set: Homo sapiens
- Description: SANGER: Inhibition of human SCC-9 cell growth in a cell viability assay.
test-readout: IC50 (nM)

• CO[C@@]12[C@H](COC(N)=O)C3=C(C(=O)C(C)=C(N)C3=O)N1C[C@@H]1N[C@@H]12 [MITOMYCIN] = 3790
• Fc1cc(-c2cc[nH]/c(=N/c3ccc(-n4cnc(N5CCOCC5)n4)cc3)n2)cc(N2CCOCC2)c1 = 218

* * *

- Test system: QIMR-WIL;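 note: growth inhibition of QIMR-WIL cells, read out with a cell viability assay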
- assay: cells
- Format: functional, cell-based
- condition-set: Homo sapiens
- Description: SANGER: Inhibition of human QIMR-WIL cell growth in a cell viability assay.
pIC50: −log10 of the molar value.
This listing pairs molecules with measured pIC50.
test-readout: pIC50

- Cc1ccc(NC(=O)c2cccc(C(C)(C)C#N)c2)cc1Nc1ccc2ncn(C)c(=O)c2c1: 5.49
- CC(C)=CC[C@@H](O)C1=CC(=O)c2c(O)ccc(O)c2C1=O: 6.74
- Cn1c(=O)n(-c2ccc(C(C)(C)C#N)cc2)c2c3cc(-c4cnc5ccccc5c4)ccc3ncc21: 7.51
- COc1cc(C)c(Sc2cnc(NC(=O)c3ccc(CNC(C)C(C)(C)C)cc3)s2)cc1C(=O)N1CCN(C(C)=O)CC1 (stereo not given): 5.00
- CC[C@]1(O)C[C@@H]2CN(CCc3c([nH]c4ccccc34)[C@@](C(=O)OC)(c3cc4c(cc3OC)N(C)[C@H]3[C@@](O)(C(=O)OC)[C@H](OC(C)=O)[C@]5(CC)C=CCN6CC[C@]43[C@@H]65)C2)C1: 8.05

* * *

- Test system: SCH;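 note: growth inhibition of human SCH cells, read out in a cell viability assay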
- assay: cells
- Format: functional, cell-based
- condition-set: Homo sapiens
- Description: SANGER: Inhibition of human SCH cell growth in a cell viability assay.
test-readout: IC50

• NC(=O)c1ncn([C@@H]2O[C@H](COP(=O)(O)O)[C@@H](O)[C@H]2O)c1N = > 2000 µM
• COc1cc(Nc2c(C#N)cnc3cc(OCCCN4CCN(C)CC4)c(OC)cc23)c(Cl)cc1Cl = > 2 µM
• N#C/C(=C1/Nc2ccccc2S1)c1ccnc(NCCc2cccnc2)n1 = > 8 µM
• C/C=C(/C)C(=O)O[C@H]1C(C)=C2[C@H]([C@@H]1OC(=O)CCCCCCC)[C@@](C)(OC(C)=O)C[C@H](OC(=O)CCC)[C@@]1(O)[C@H]2OC(=O)[C@@]1(C)O = > 0.512 µM
• Fc1cc(-c2cc[nH]/c(=N/c3ccc(-n4cnc(N5CCOCC5)n4)cc3)n2)cc(N2CCOCC2)c1 = 3.25 µM
• CC[C@]1(O)C[C@@H]2CN(CCc3c([nH]c4ccccc34)[C@@](C(=O)OC)(c3cc4c(cc3OC)N(C)[C@H]3[C@@](O)(C(=O)OC)[C@H](OC(C)=O)[C@]5(CC)C=CCN6CC[C@]43[C@@H]65)C2)C1 = 0.0297 µM

* * *

This listing pairs compounds with measured IC50.
- Tested on: TGBC24TKB
- assay: cells
- Assay type: functional, cell-based
- condition-set: Homo sapiens
- Description: SANGER: Inhibition of human TGBC24TKB cell growth in a cell viability assay.
test-readout: IC50

• CCCS(=O)(=O)Nc1ccc(F)c(C(=O)c2c[nH]c3ncc(Cl)cc23)c1F = > 10 µM
• Fc1cc(-c2cc[nH]/c(=N/c3ccc(-n4cnc(N5CCOCC5)n4)cc3)n2)cc(N2CCOCC2)c1 = 1.04 µM
• Cn1cc(/C=C2\C(=O)Nc3cccnc32)c2ccccc21 = > 2 µM
• CC(O)(CS(=O)(=O)c1ccc(F)cc1)C(=O)Nc1ccc(C#N)c(C(F)(F)F)c1 (stereo unspecified) [BICALUTAMIDE] = > 1.02 µM
• COc1cc(C)c(Sc2cnc(NC(=O)c3ccc(CNC(C)C(C)(C)C)cc3)s2)cc1C(=O)N1CCN(C(C)=O)CC1 (stereo unspecified) = > 10.2 µM
• CCNc1cc(N[C@H]2CC[C@@H](O)CC2)nc(Nc2ccc3c(ccn3Cc3ccccc3)c2)n1 = > 5.12 µM
• O=c1[nH]c2ccccc2n1C1CCN(Cc2ccc(-c3nc4cc5[nH]cnc5cc4nc3-c3ccccc3)cc2)CC1 = > 2.56 µM
• C[C@]1(c2nc3c(C(N)=O)cccc3[nH]2)CCCN1 = > 5 µM
• C/C(O)=C(\C#N)C(=O)Nc1cc(Br)ccc1Br = > 16 µM
• CC(=O)c1c(C)c2cnc(Nc3ccc(N4CCNCC4)cn3)nc2n(C2CCCC2)c1=O = > 4 µM
• N#C/C(=C1/Nc2ccccc2S1)c1ccnc(NCCc2cccnc2)n1 = > 8 µM

* * *

- Test system: NCI-H1648;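 note: cell viability assay measuring inhibition of NCI-H1648 cell growth, from the Sanger screening data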
- assay: cells
- Assay type: functional, cell-based
- condition-set: Homo sapiens
- Description: SANGER: Inhibition of human NCI-H1648 cell growth in a cell viability assay.
pIC50: −log10 of the molar value.
This listing pairs compounds with measured pIC50.
test-readout: pIC50

• O=c1[nH]c2ccccc2n1C1CCN(Cc2ccc(-c3nc4cc5[nH]cnc5cc4nc3-c3ccccc3)cc2)CC1 = < 5.59
• N#C/C(=C1/Nc2ccccc2S1)c1ccnc(NCCc2cccnc2)n1 = < 5.10
• NC(=O)c1ncn([C@@H]2O[C@H](COP(=O)(O)O)[C@@H](O)[C@H]2O)c1N = < 2.70
• Cn1cc(/C=C2\C(=O)Nc3cccnc32)c2ccccc21 = < 5.70
• Fc1cc(-c2cc[nH]/c(=N/c3ccc(-n4cnc(N5CCOCC5)n4)cc3)n2)cc(N2CCOCC2)c1 = 6.33
• CCCS(=O)(=O)Nc1ccc(F)c(C(=O)c2c[nH]c3ncc(Cl)cc23)c1F = < 5.00

* * *

This listing pairs molecules with measured IC50.
- Test system: JEG-3
- assay: cells
- Assay type: functional, cell-based
- condition-set: Homo sapiens
- Description: SANGER: Inhibition of human JEG-3 cell growth in a cell viability assay.
test-readout: IC50

* C[C@]12O[C@H](C[C@]1(O)CO)n1c3ccccc3c3c4c(c5c6ccccc6n2c5c31)CNC4=O | 730 nM
* CC[C@@]1(O)C(=O)OCc2c1cc1n(c2=O)Cc2cc3ccccc3nc2-1 | 13.1 nM
* CC(=O)c1c(C)c2cnc(Nc3ccc(N4CCNCC4)cn3)nc2n(C2CCCC2)c1=O | > 4000 nM
* CC(C)=CC[C@@H](O)C1=CC(=O)c2c(O)ccc(O)c2C1=O | 3170 nM
* Cn1c(=O)n(-c2ccc(C(C)(C)C#N)cc2)c2c3cc(-c4cnc5ccccc5c4)ccc3ncc21 | 84.1 nM
* N#C/C(=C1/Nc2ccccc2S1)c1ccnc(NCCc2cccnc2)n1 | > 8000 nM
* Fc1cc(-c2cc[nH]/c(=N/c3ccc(-n4cnc(N5CCOCC5)n4)cc3)n2)cc(N2CCOCC2)c1 | 705 nM
* C/C=C(/C)C(=O)O[C@H]1C(C)=C2[C@H]([C@@H]1OC(=O)CCCCCCC)[C@@](C)(OC(C)=O)C[C@H](OC(=O)CCC)[C@@]1(O)[C@H]2OC(=O)[C@@]1(C)O | 9.78 nM
